- Test Protocol: IS-RPLC retention on silica-based C18 column, logkw by linear solvent strength model
- Assay type: physicochemical
- Reported Conditions: pH 7.0; methanol/20 mmol/L ammonium phosphate buffer, Welch Xtimate C18, 30 °C; 100% aqueous extrapolation
- Protocol: The retention behavior of the 42 basic compounds (Table 1) were investigated at different ratios of methanol (φ = 0.7–0.1, the interval was 0.1 or 0.05 based on the retention of the investigated solutes). […] The logD values of the model compounds and verification compounds calculated using Equation (S3) based on the logP and pH values are also listed in Table 1. […] At each pH, the retention time (tR) of every analyte was determined for at least four different volume fractions (φ) of methanol. […]

# Smiles String, logkw-pH 7.0
measured = [
    ("Nc1ccc([N+](=O)[O-])cc1[N+](=O)[O-]", 1.80),
    ("Nc1cccc(N)c1", 0.17),
    ("Nc1ccc(I)cc1", 2.22),
]
